test: Pharmacokinetics in adjuvant-induced arthritis (AA) rats after oral administration of Zushima-Gancao extract (UHPLC-MS/MS of plasma); conditions: male, Sprague-Dawley, rat, plasma, po, 10 mL/kg
Items are presented alongside their recorded AUC(0-inf).
outcome.measure: AUC(0-inf) (ng·h/mL)

smi: O=C1C[C@@H](c2ccc(O[C@@H]3O[C@H](CO)[C@@H](O)[C@H](O)[C@H]3O)cc2)Oc2cc(O)ccc21
measurement.unit: ng·h/mL
quantitative.result: 34.4
//
smi: CC1(C)[C@@H](O[C@H]2O[C@H](C(=O)O)[C@@H](O)[C@H](O)[C@H]2O[C@@H]2O[C@H](C(=O)O)[C@@H](O)[C@H](O)[C@H]2O)CC[C@]2(C)[C@H]3C(=O)C=C4[C@@H]5C[C@@](C)(C(=O)O)CC[C@]5(C)CC[C@@]4(C)[C@]3(C)CC[C@@H]12
measurement.unit: ng·h/mL
quantitative.result: 187

====

assay: Stability test of analytes in rat plasma (QC samples); type: physicochemical; conditions: high concentration, room temperature for 4 h

compound: COc1cc2cc(Oc3ccc4ccc(=O)oc4c3)c(=O)oc2cc1O
Short-Term Stability RE (%): −5.38
//
compound: O=C(/C=C/c1ccc(O[C@@H]2O[C@H](CO)[C@@H](O)[C@H](O)[C@H]2O)cc1)c1ccc(O)cc1O
Short-Term Stability RE (%): 3.29
//
compound: O=C1C[C@@H](c2ccc(O)cc2)Oc2cc(O)ccc21
Short-Term Stability RE (%): 1.5
//
compound: O=c1ccc2ccc(O)cc2o1 [HDC, 7-hydroxycoumarin]
Short-Term Stability RE (%): 3.09
//
compound: O=C1C[C@@H](c2ccc(O[C@@H]3O[C@H](CO)[C@@H](O)[C@H](O)[C@H]3O)cc2)Oc2cc(O)ccc21
Short-Term Stability RE (%): 5.23
//
compound: CC1(C)[C@@H](O[C@H]2O[C@H](C(=O)O)[C@@H](O)[C@H](O)[C@H]2O[C@@H]2O[C@H](C(=O)O)[C@@H](O)[C@H](O)[C@H]2O)CC[C@]2(C)[C@H]3C(=O)C=C4[C@@H]5C[C@@](C)(C(=O)O)CC[C@]5(C)CC[C@@]4(C)[C@]3(C)CC[C@@H]12
Short-Term Stability RE (%): 13.85
//
compound: CC1(C)[C@@H](O)CC[C@]2(C)[C@H]3C(=O)C=C4[C@@H]5C[C@@](C)(C(=O)O)CC[C@]5(C)CC[C@@]4(C)[C@]3(C)CC[C@@H]12
Short-Term Stability RE (%): 13.05
//
compound: O=C(/C=C/c1ccc(O)cc1)c1ccc(O)cc1O
Short-Term Stability RE (%): 12.09
//
compound: O=c1ccc2ccc(O)c(O)c2o1
Short-Term Stability RE (%): −12.42

====

assay: Pharmacokinetics in normal rats after oral administration of Zushima-Gancao extract (UHPLC-MS/MS of plasma); format: in vivo; details: male, Sprague-Dawley, rat, oral Zushima-Gancao extract 10 mL/kg single dose, n = 6, mean ± SD
outcome.measure: log10(Tmax) (log10 of the value in min)

compound: CC1(C)[C@@H](O[C@H]2O[C@H](C(=O)O)[C@@H](O)[C@H](O)[C@H]2O[C@@H]2O[C@H](C(=O)O)[C@@H](O)[C@H](O)[C@H]2O)CC[C@]2(C)[C@H]3C(=O)C=C4[C@@H]5C[C@@](C)(C(=O)O)CC[C@]5(C)CC[C@@]4(C)[C@]3(C)CC[C@@H]12
outcome.measure: log10(Tmax)
quantitative.result: 1.54
//
compound: O=c1ccc2ccc(O)cc2o1 [HDC, 7-hydroxycoumarin]
outcome.measure: log10(Tmax)
quantitative.result: 1.12
//
compound: O=C(/C=C/c1ccc(O)cc1)c1ccc(O)cc1O
outcome.measure: log10(Tmax)
quantitative.result: 0.92
//
compound: COc1cc2cc(Oc3ccc4ccc(=O)oc4c3)c(=O)oc2cc1O
outcome.measure: log10(Tmax)
quantitative.result: 1.37
//
compound: O=C1C[C@@H](c2ccc(O)cc2)Oc2cc(O)ccc21
outcome.measure: log10(Tmax)
quantitative.result: 2.37
//
compound: CC1(C)[C@@H](O)CC[C@]2(C)[C@H]3C(=O)C=C4[C@@H]5C[C@@](C)(C(=O)O)CC[C@]5(C)CC[C@@]4(C)[C@]3(C)CC[C@@H]12
outcome.measure: log10(Tmax)
quantitative.result: 2.72
//
compound: O=C(/C=C/c1ccc(O[C@@H]2O[C@H](CO)[C@@H](O)[C@H](O)[C@H]2O)cc1)c1ccc(O)cc1O
outcome.measure: log10(Tmax)
quantitative.result: 1.01
//
compound: O=c1ccc2ccc(O)c(O)c2o1
outcome.measure: log10(Tmax)
quantitative.result: 1.16

====

experiment: Pharmacokinetics in normal rats after oral administration of Zushima-Gancao extract (UHPLC-MS/MS of plasma); format: in vivo; settings: male, Sprague-Dawley, rat, oral Zushima-Gancao extract 10 mL/kg single dose, n = 6, mean ± SD
outcome.measure: log10(AUC(0-inf)) (log10 of the value in ng·h/mL)

molecule: O=c1ccc2ccc(O)cc2o1 [HDC, 7-hydroxycoumarin]
log10(AUC(0-inf)): 2.17

molecule: O=C1C[C@@H](c2ccc(O[C@@H]3O[C@H](CO)[C@@H](O)[C@H](O)[C@H]3O)cc2)Oc2cc(O)ccc21
log10(AUC(0-inf)): 1.66

molecule: O=C1C[C@@H](c2ccc(O)cc2)Oc2cc(O)ccc21
log10(AUC(0-inf)): 2.23

molecule: O=c1ccc2ccc(O)c(O)c2o1
log10(AUC(0-inf)): 2.41

molecule: CC1(C)[C@@H](O[C@H]2O[C@H](C(=O)O)[C@@H](O)[C@H](O)[C@H]2O[C@@H]2O[C@H](C(=O)O)[C@@H](O)[C@H](O)[C@H]2O)CC[C@]2(C)[C@H]3C(=O)C=C4[C@@H]5C[C@@](C)(C(=O)O)CC[C@]5(C)CC[C@@]4(C)[C@]3(C)CC[C@@H]12
log10(AUC(0-inf)): 2.43

molecule: O=C(/C=C/c1ccc(O[C@@H]2O[C@H](CO)[C@@H](O)[C@H](O)[C@H]2O)cc1)c1ccc(O)cc1O
log10(AUC(0-inf)): 0.83

molecule: O=C(/C=C/c1ccc(O)cc1)c1ccc(O)cc1O
log10(AUC(0-inf)): 1.09

molecule: CC1(C)[C@@H](O)CC[C@]2(C)[C@H]3C(=O)C=C4[C@@H]5C[C@@](C)(C(=O)O)CC[C@]5(C)CC[C@@]4(C)[C@]3(C)CC[C@@H]12
log10(AUC(0-inf)): 3.29

molecule: COc1cc2cc(Oc3ccc4ccc(=O)oc4c3)c(=O)oc2cc1O
log10(AUC(0-inf)): 2.21

====

assay: Pharmacokinetics in adjuvant-induced arthritis (AA) rats after oral administration of Zushima-Gancao extract (UHPLC-MS/MS of plasma); details: AA rats versus normal rats, oral Zushima-Gancao extract
outcome.measure: decrease of AUC (0–∞) compared with the normal group (%)

smi: O=C1C[C@@H](c2ccc(O[C@@H]3O[C@H](CO)[C@@H](O)[C@H](O)[C@H]3O)cc2)Oc2cc(O)ccc21
measurement.unit: %
quantitative.result: 24.57
--
smi: O=c1ccc2ccc(O)c(O)c2o1
measurement.unit: %
quantitative.result: 34.56
--
smi: CC1(C)[C@@H](O[C@H]2O[C@H](C(=O)O)[C@@H](O)[C@H](O)[C@H]2O[C@@H]2O[C@H](C(=O)O)[C@@H](O)[C@H](O)[C@H]2O)CC[C@]2(C)[C@H]3C(=O)C=C4[C@@H]5C[C@@](C)(C(=O)O)CC[C@]5(C)CC[C@@]4(C)[C@]3(C)CC[C@@H]12
measurement.unit: %
quantitative.result: 29.89
--
smi: O=C(/C=C/c1ccc(O[C@@H]2O[C@H](CO)[C@@H](O)[C@H](O)[C@H]2O)cc1)c1ccc(O)cc1O
measurement.unit: %
quantitative.result: 39.02

====

assay: Pharmacokinetics in normal rats after oral administration of Zushima-Gancao extract (UHPLC-MS/MS of plasma); format: in vivo; conditions: male, Sprague-Dawley, rat, oral Zushima-Gancao extract 10 mL/kg single dose, n = 6, mean ± SD
outcome.measure: Cmax (ng/mL)

compound: O=c1ccc2ccc(O)cc2o1 [HDC, 7-hydroxycoumarin]
outcome.measure: Cmax
quantitative.result: 193
--
compound: O=C(/C=C/c1ccc(O)cc1)c1ccc(O)cc1O
outcome.measure: Cmax
quantitative.result: 2.77
--
compound: O=C1C[C@@H](c2ccc(O[C@@H]3O[C@H](CO)[C@@H](O)[C@H](O)[C@H]3O)cc2)Oc2cc(O)ccc21
outcome.measure: Cmax
quantitative.result: 58.8
--
compound: CC1(C)[C@@H](O)CC[C@]2(C)[C@H]3C(=O)C=C4[C@@H]5C[C@@](C)(C(=O)O)CC[C@]5(C)CC[C@@]4(C)[C@]3(C)CC[C@@H]12
outcome.measure: Cmax
quantitative.result: 167
--
compound: O=c1ccc2ccc(O)c(O)c2o1
outcome.measure: Cmax
quantitative.result: 214
--
compound: CC1(C)[C@@H](O[C@H]2O[C@H](C(=O)O)[C@@H](O)[C@H](O)[C@H]2O[C@@H]2O[C@H](C(=O)O)[C@@H](O)[C@H](O)[C@H]2O)CC[C@]2(C)[C@H]3C(=O)C=C4[C@@H]5C[C@@](C)(C(=O)O)CC[C@]5(C)CC[C@@]4(C)[C@]3(C)CC[C@@H]12
outcome.measure: Cmax
quantitative.result: 29
